- system-tested: mouse melanocortin-1 receptor (mouse, UniProt Q01727 1-315)
- Sequence (Q01727 whole entry): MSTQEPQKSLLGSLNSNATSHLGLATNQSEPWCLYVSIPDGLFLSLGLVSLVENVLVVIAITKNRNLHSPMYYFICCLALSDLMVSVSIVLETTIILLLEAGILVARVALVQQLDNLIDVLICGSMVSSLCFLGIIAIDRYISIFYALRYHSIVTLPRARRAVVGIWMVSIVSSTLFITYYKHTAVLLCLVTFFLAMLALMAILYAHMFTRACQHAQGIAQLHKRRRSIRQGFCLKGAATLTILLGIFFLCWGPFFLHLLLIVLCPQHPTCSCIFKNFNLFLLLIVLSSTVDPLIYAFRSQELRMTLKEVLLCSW
- experiment-summary: cell-based or functional assay
Square brackets hold non-standard residues; d marks the D form. Bip = N[C@@H](Cc1ccc(-c2ccccc2)cc1)C(=O)O; dPhe(4-I) = N[C@H](Cc1ccc(I)cc1)C(=O)O; 2Nal = N[C@@H](Cc1ccc2ccccc2c1)C(=O)O; d2Nal = N[C@H](Cc1ccc2ccccc2c1)C(=O)O; Bta = N[C@@H](Cc1csc2ccccc12)C(=O)O; Tic = O=C(O)[C@@H]1Cc2ccccc2CN1
value-type: Agonist, % of NDP-MSH maximal response (% @ 100 µM)
Quick note: give the figure in % @ 100 µM, leave out the unit.

Exercise: Which value of Agonist, % of NDP-MSH maximal response has been reported for Ac-[Tic]R[dPhe(4-I)][Bta]-NH2 [SKY4-48-14, Ac-Tic-Arg-(pI)DPhe-3Bal-NH2] in the records?
Solution: 38

Exercise: For the binder shown here, Ac-[Bip]R[dPhe(4-I)][2Nal]-NH2 [SKY4-48-36, Ac-Bip-Arg-(pI)DPhe-Nal(2')-NH2] , give the reported Agonist, % of NDP-MSH maximal response.
Solution: 23

Exercise: Query (binder): Ac-RR[dPhe(4-I)][Bip]-NH2 [SKY4-48-2, Ac-Arg-Arg-(pI)DPhe-Bip-NH2] ; field requested: Agonist, % of NDP-MSH maximal response
Solution: 44

Exercise: Given Ac-FR[dPhe(4-I)][Bip]-NH2 [SKY4-48-7, Ac-Phe-Arg-(pI)DPhe-Bip-NH2] , state its recorded Agonist, % of NDP-MSH maximal response.
Solution: 67

Exercise: May I ask what Agonist, % of NDP-MSH maximal response has been recorded for Ac-[Bta]R[dPhe(4-I)][d2Nal]-NH2 [SKY4-48-45, Ac-3Bal-Arg-(pI)DPhe-DNal(2')-NH2] ?
Solution: 36

Exercise: Which Agonist, % of NDP-MSH maximal response is reported for this binder? Ac-[Tic]R[dPhe(4-I)][Bip]-NH2 [SKY5-146-1, Ac-Tic-Arg-(pI)DPhe-Bip-NH2]
Solution: 39

Exercise: // returns reported Agonist, % of NDP-MSH maximal response for input Ac-[Tic]R[dPhe(4-I)][2Nal]-NH2 [SKY4-48-38, Ac-Tic-Arg-(pI)DPhe-Nal(2')-NH2]
Solution: 66

Exercise: I would be grateful if you could share the reported Agonist, % of NDP-MSH maximal response for Ac-[2Nal]R[dPhe(4-I)][d2Nal]-NH2 [SKY4-48-48, Ac-Nal(2')-Arg-(pI)DPhe-DNal(2')-NH2] .
Solution: 53
